# pIC50 values compiled below
Target: CYP1A2 (Homo sapiens, UniProt P05177)
Construct: from tissue; host or cells: human liver microsomes, mixed-gender pool of 200
Sequence (P05177 1-516): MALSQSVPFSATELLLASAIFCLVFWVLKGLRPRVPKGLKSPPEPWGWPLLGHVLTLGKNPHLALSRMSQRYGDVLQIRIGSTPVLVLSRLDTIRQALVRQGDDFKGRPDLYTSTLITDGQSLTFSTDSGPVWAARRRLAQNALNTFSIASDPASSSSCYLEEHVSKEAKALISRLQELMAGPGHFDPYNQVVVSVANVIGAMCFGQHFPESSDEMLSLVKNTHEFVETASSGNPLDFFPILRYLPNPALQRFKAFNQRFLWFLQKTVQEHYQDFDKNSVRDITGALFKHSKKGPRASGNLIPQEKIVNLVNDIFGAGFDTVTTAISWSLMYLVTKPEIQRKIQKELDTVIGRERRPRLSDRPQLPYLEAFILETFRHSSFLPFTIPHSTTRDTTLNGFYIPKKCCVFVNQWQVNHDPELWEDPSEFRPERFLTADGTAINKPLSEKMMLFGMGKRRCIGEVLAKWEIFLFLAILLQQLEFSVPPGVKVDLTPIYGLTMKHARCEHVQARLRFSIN
Assay: In-vitro CYP inhibition study, CYP1A2
Assay type: in vitro ADME
Conditions: human liver microsomes, substrate Phenacetin (90 μM), preincubation 30 min
Reminder that pIC50 is minus the log10 of a molar concentration.

Look over these answered cases.
{"columns": ["COMPOUND", "pIC50"],
 "data": [
  ["[2H]C([2H])([2H])C([2H])(Nc1cc(-c2c[nH]c(C(=O)N[C@H](CO)c3cccc(Cl)c3)c2)c(Cl)cn1)C([2H])([2H])[2H]", 4.77],
  ["[2H]C([2H])([2H])C(Nc1cc(-c2c[nH]c(C(=O)N[C@H](CO)c3cccc(Cl)c3)c2)c(Cl)cn1)C([2H])([2H])[2H]", 4.72]
]}

Now take the following compound into account.
Print CYP1A2 (Homo sapiens, UniProt P05177) pIC50 for CC(C)Nc1cc(-c2c[nH]c(C(=O)N[C@H](CO)c3cccc(Cl)c3)c2)c(Cl)cn1 [Ulixertinib, reference compound] .
4.89

====

Target: CYP2C9 (Homo sapiens, UniProt P11712)
Construct: from tissue; host or cells: human liver microsomes, mixed-gender pool of 200
Sequence (P11712 whole entry): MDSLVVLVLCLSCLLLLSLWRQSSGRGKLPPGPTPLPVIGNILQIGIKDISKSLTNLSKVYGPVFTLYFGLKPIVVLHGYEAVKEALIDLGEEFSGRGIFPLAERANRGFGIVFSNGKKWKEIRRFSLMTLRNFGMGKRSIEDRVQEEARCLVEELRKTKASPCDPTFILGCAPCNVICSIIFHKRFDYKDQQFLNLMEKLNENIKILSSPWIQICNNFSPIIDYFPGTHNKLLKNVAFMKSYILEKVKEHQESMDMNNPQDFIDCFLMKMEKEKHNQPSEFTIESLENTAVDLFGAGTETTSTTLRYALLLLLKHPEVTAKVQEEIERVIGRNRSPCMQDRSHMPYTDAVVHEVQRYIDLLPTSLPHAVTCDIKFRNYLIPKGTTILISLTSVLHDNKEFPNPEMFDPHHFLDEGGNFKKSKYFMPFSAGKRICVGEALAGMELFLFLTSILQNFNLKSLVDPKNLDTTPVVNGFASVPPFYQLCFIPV
Assay: In-vitro CYP inhibition study, CYP2C9
Format: in vitro ADME
Conditions: human liver microsomes, substrate Diclofenac (12 μM), preincubation 30 min
ASSAY READOUT: IC50 (µM)
Express the result in µM but write the number alone.

{"columns": ["COMPOUND", "UNITS TEXT", "IC50"],
 "data": [
  ["[2H]C([2H])([2H])C([2H])(Nc1cc(-c2c[nH]c(C(=O)N[C@H](CO)c3cccc(Cl)c3)c2)c(Cl)cn1)C([2H])([2H])[2H]", "µM", 3.9],
  ["CC(C)Nc1cc(-c2c[nH]c(C(=O)N[C@H](CO)c3cccc(Cl)c3)c2)c(Cl)cn1 [Ulixertinib, reference compound]", "µM", 3.4],
  ["[2H]C([2H])([2H])C(Nc1cc(-c2c[nH]c(C(=O)N[C@H](CO)c3cccc(Cl)c3)c2)c(Cl)cn1)C([2H])([2H])[2H]", "µM", 4.3]
]}

Next compound, please.
Answer with the recorded IC50 for the compound listed here: Cl.[2H]C(C)(C)Nc1cc(-c2c[nH]c(C(=O)N[C@H](CO)c3cccc(Cl)c3)c2)c(Cl)cn1 [Formula 21A]
4.4

====

Test: Pharmacokinetics and metabolite formation in rats
Type: in vivo, rat
Settings: both sexes, rat, in vivo, po, 12.5 mg/kg
ASSAY READOUT: half-life (h)
Write the number in h without appending the unit.

{"columns": ["COMPOUND", "ASSAY READOUT", "READOUT NUMBER"],
 "data": [
  ["Cl.[2H]C([2H])([2H])C([2H])(Nc1cc(-c2c[nH]c(C(=O)N[C@H](CO)c3cccc(Cl)c3)c2)c(Cl)cn1)C([2H])([2H])[2H] [Formula 18A]", "half-life", 4.18],
  ["Cl.[2H]C([2H])([2H])C(Nc1cc(-c2c[nH]c(C(=O)N[C@H](CO)c3cccc(Cl)c3)c2)c(Cl)cn1)C([2H])([2H])[2H] [Formula 19A]", "half-life", 4]
]}

Next compound, half-life to be filled in.
Return half-life (reported value) for this compound: Cl.[2H]C(C)(C)Nc1cc(-c2c[nH]c(C(=O)N[C@H](CO)c3cccc(Cl)c3)c2)c(Cl)cn1 [Formula 21A]
3.81

====

# Fold Change in mRNA Expression of CYP3A4 annotations
System: CYP3A4 mRNA expression
Conditions: human, hepatocytes, 24 h, 1 μM
Only the number, expressed in fold, is required.

{"columns": ["COMPOUND", "UNITS TEXT", "Fold Change in mRNA Expression of CYP3A4"],
 "data": [
  ["[2H]C([2H])([2H])C(Nc1cc(-c2c[nH]c(C(=O)N[C@H](CO)c3cccc(Cl)c3)c2)c(Cl)cn1)C([2H])([2H])[2H]", "fold", 2.06],
  ["CC(C)Nc1cc(-c2c[nH]c(C(=O)N[C@H](CO)c3cccc(Cl)c3)c2)c(Cl)cn1 [Ulixertinib, reference compound]", "fold", 1.52],
  ["[2H]C([2H])([2H])C([2H])(Nc1cc(-c2c[nH]c(C(=O)N[C@H](CO)c3cccc(Cl)c3)c2)c(Cl)cn1)C([2H])([2H])[2H]", "fold", 1.83]
]}

Please report the measured Fold Change in mRNA Expression of CYP3A4 for Cl.[2H]C(C)(C)Nc1cc(-c2c[nH]c(C(=O)N[C@H](CO)c3cccc(Cl)c3)c2)c(Cl)cn1 [Formula 21A] tested on CYP3A4 mRNA expression.
1.39

====

Listing of entries alongside the reported IC50.
Molecular target: CYP2D6 (Homo sapiens)
Construct: from tissue; host or cells: human liver microsomes, mixed-gender pool of 200
Sequence (P10635 whole entry): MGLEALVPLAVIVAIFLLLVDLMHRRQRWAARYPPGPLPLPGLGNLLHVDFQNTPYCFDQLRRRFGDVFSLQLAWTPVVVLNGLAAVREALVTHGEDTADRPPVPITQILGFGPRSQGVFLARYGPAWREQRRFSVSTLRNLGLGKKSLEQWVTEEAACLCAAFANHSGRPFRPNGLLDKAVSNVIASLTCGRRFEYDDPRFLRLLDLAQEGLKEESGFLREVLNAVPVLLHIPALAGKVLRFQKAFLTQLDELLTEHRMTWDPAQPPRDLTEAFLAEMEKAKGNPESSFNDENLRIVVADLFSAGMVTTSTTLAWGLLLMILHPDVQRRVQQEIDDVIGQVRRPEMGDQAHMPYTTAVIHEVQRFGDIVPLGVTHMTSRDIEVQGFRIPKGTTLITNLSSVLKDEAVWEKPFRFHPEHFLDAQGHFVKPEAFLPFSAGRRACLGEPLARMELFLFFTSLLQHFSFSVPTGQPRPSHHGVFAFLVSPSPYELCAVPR
Assay: In-vitro CYP inhibition study, CYP2D6
Format: in vitro ADME
Conditions: human liver microsomes, substrate Dextramethorphan (10 μM), preincubation 30 min

Supply IC50 value. Item: [2H]C([2H])([2H])C([2H])(Nc1cc(-c2c[nH]c(C(=O)N[C@H](CO)c3cccc(Cl)c3)c2)c(Cl)cn1)C([2H])([2H])[2H]
19 µM

Could you please provide reported IC50 for [2H]C([2H])([2H])C(Nc1cc(-c2c[nH]c(C(=O)N[C@H](CO)c3cccc(Cl)c3)c2)c(Cl)cn1)C([2H])([2H])[2H] ? Thanks!
> 20 µM

State, in one line, measured IC50 of Cl.[2H]C(C)(C)Nc1cc(-c2c[nH]c(C(=O)N[C@H](CO)c3cccc(Cl)c3)c2)c(Cl)cn1 [Formula 21A]
> 20 µM

Fill in IC50 for record CC(C)Nc1cc(-c2c[nH]c(C(=O)N[C@H](CO)c3cccc(Cl)c3)c2)c(Cl)cn1 [Ulixertinib, reference compound]
18 µM

====

Assay: Half-life determination in human liver microsomes
Format: in vitro ADME
Details: human, 1 μM, NADPH, Rep 2, read-out: Half-life, t½, Rep 2
Protocol: Human microsomes from a pool of 10 donors was obtained from a commercial source. Microsomes prepared in potassium phosphate buffer were spiked with ulixertinib, Formula 18, Formula 19, and Formula 21 individually in replicates of six at a final concentration of 1 μM. NADPH was used to initiate the experiment; a control of minus NADPH (minus cofactor) was also run in parallel to the human liver microsome stability. […] Samples were analyzed for ulixertinib, Formula 18, Formula 19, and Formula 21. […]
ASSAY READOUT: half-life at 1 μM (min)
Could you give me the number in min? Just the number is fine.

{"columns": ["COMPOUND", "ASSAY READOUT", "READOUT NUMBER"],
 "data": [
  ["CC(C)Nc1cc(-c2c[nH]c(C(=O)N[C@H](CO)c3cccc(Cl)c3)c2)c(Cl)cn1 [Ulixertinib, reference compound]", "half-life at 1 μM", 51.2],
  ["[2H]C([2H])([2H])C([2H])(Nc1cc(-c2c[nH]c(C(=O)N[C@H](CO)c3cccc(Cl)c3)c2)c(Cl)cn1)C([2H])([2H])[2H] [Formula 18]", "half-life at 1 μM", 58.7],
  ["[2H]C([2H])([2H])C(Nc1cc(-c2c[nH]c(C(=O)N[C@H](CO)c3cccc(Cl)c3)c2)c(Cl)cn1)C([2H])([2H])[2H] [Formula 19]", "half-life at 1 μM", 45.2]
]}

Proceed to the following item.
Read off the recorded half-life at 1 μM for [2H]C(C)(C)Nc1cc(-c2c[nH]c(C(=O)N[C@H](CO)c3cccc(Cl)c3)c2)c(Cl)cn1 [Formula 21]
75.8
